Ref: ChEMBL document CHEMBL4732094

System: MCF7
Assay: Cytotoxicity against human MCF7 cells assessed as cell viability measured after 24 hrs by MTT assay
Assay type: functional, cell-based
Conditions: MCF7, 24 h
MEASUREMENT_LABEL: IC50

Consider the worked cases shown below.
{"ITEM_SMILES": "Cc1cc(-c2nc3cc(F)ccc3o2)ccc1NC(=O)CN1CCN(CCN(C)C)CC1", "RESULT": "10.4 µM"}
{"ITEM_SMILES": "Cc1cc(-c2nc3ccccc3o2)ccc1NC(=O)CCl", "RESULT": "29.8 µM"}
{"ITEM_SMILES": "CN(C)CCCN1CCN(CC(=O)Nc2ccc(-c3nc4cc(F)ccc4o3)cc2)CC1", "RESULT": "14.8 µM"}
{"ITEM_SMILES": "Cc1cc(-c2nc3cc(Cl)ccc3o2)ccc1NC(=O)CCl", "RESULT": "> 100 µM"}
{"ITEM_SMILES": "CN(C)CCN1CCN(CC(=O)Nc2ccc(-c3nc4cc(F)ccc4o3)cc2)CC1", "RESULT": "20.8 µM"}

Provide IC50 values for the following items, in order.
1. CN(C)CCN1CCN(CC(=O)Nc2ccc(-c3nc4cc(Cl)ccc4o3)cc2)CC1
2. Cc1cc(-c2nc3cc(Cl)ccc3o2)ccc1NC(=O)CN1CCN(CCCN(C)C)CC1

## Result
7.92 µM
63.4 µM
